Here, each record is paired with measured MIC data.
# System: Saccharomyces cerevisiae
# protocol: Antifungal activity against Saccharomyces cerevisiae W303-1B after 48 hrs by broth microdilution assay
# Assay type: functional
observable: MIC (µM)

chem smiles	observable	measured result
CC/N=c1/cc2oc3cc(NCCN)c4ccccc4c3nc-2cc1C	MIC	120
CC/N=c1/cc2oc3cc(NCCCO)c4cc5ccccc5cc4c3nc-2cc1C	MIC	15
CC/N=c1/cc2oc3cc(N)c4cc5ccccc5cc4c3nc-2cc1C	MIC	30
CC/N=c1/cc2oc3cc(NCCC(=O)OC)c4ccccc4c3nc-2cc1C	MIC	15
CCOC(=O)CCNc1cc2oc3cc(=[N+](C)C)ccc-3nc2c2ccccc12	MIC	15

* * *

# Test system: Saccharomyces cerevisiae
# protocol: Antifungal activity against Saccharomyces cerevisiae W303-1B after 48 hrs by broth microdilution assay
# Format: functional
observable: MIC (µM)

compound	relation operator	measured result
CC/N=c1/cc2oc3cc(NCCCC(=O)O)c4ccccc4c3nc-2cc1C	=	120
CC/N=c1/cc2oc3cc(NCCCCl)c4cc5ccccc5cc4c3nc-2cc1C	=	15
CC/N=c1/cc2oc3cc(NCCC(=O)NCCCCC(NC(C)=O)C(=O)OC)c4ccccc4c3nc-2cc1C (stereo not given)	=	120
COC(=O)CCNc1cc2oc3cc(=[N+](C)C)ccc-3nc2c2ccccc12	>	120
CC/N=c1/cc2oc3cc(NCCCN)c4cc5ccccc5cc4c3nc-2cc1C	=	60

* * *

Here, each record is paired with measured MIC data.
# Test system: Saccharomyces cerevisiae
# protocol: Antifungal activity against Saccharomyces cerevisiae W303-1B after 48 hrs by broth microdilution assay
# Format: functional

chem smiles	MIC
C[N+](C)=c1ccc2nc3c(cc(NCCC(=O)O)c4ccccc43)oc-2c1	> 120 µM
C[N+](C)=c1ccc2nc3c(cc(N)c4ccccc43)oc-2c1	> 120 µM
CCCCCC/N=c1\ccc2nc3c(cc(Nc4ccccc4)c4ccccc43)oc-2c1	> 120 µM

The origin of these recorded values is ChEMBL document CHEMBL1143943.
